# TESTED SYSTEM: T1, human C1s (human, UniProt P09871 16-688)
# T1 construct: also called hC1s; serum-derived human C1s (CompTech)
# T1 sequence: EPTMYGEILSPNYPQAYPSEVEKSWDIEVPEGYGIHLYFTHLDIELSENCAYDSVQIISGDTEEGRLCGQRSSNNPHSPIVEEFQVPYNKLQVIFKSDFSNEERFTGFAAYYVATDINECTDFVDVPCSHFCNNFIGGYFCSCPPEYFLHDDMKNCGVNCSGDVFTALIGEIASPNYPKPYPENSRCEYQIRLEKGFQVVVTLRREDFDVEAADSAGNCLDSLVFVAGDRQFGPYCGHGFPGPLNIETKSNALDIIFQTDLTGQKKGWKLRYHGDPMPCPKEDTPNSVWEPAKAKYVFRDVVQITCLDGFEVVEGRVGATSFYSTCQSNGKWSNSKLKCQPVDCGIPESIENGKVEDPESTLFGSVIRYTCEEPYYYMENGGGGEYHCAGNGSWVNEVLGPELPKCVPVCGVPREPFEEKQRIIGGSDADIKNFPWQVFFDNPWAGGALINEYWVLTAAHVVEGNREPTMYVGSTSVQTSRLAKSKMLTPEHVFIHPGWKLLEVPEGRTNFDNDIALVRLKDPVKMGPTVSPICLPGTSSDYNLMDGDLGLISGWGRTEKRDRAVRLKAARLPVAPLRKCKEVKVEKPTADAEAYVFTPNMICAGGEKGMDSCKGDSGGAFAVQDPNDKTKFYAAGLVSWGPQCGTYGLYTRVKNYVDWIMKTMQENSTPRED
# ASSAY EXPLANATION: SPR, Ab captured; pH 5.8, 1.2 mM Ca

BINDER	Kd
C1_IPN92H0033-SG4GK/IPN93L0021-SK1 (antibody, human IgG4 S228P, kappa, name in Kabat numbering, V domains shown, also called IPN92H0033/IPN93L0021) VH: EVMLVESGGGLVKPGGSLRLSCAASGFTFSNYAMSWVRQAPGKGLEWVATISSGGSHTYYLDSVKGRFTISRDNSKDTLYLQMNSLRAEDTALYYCARLFTGHAMDYWGQGTLVTVSS VL: QIVLTQSPATLSLSPGERATLSCTASSSVSSSYLHWYQQKPGKAPKLWIYSTSNLASGVPSRFSGSGSGTDYTLTISSLQPEDFATYYCHQYHRLPPITFGQGTKLEIKR	5.01 nM
